- testedTarget: Serine/threonine-protein kinase AKT (Homo sapiens) (UniProt P31751+Q9Y243+P31749)
- Sequence (P31749 whole entry, looked up): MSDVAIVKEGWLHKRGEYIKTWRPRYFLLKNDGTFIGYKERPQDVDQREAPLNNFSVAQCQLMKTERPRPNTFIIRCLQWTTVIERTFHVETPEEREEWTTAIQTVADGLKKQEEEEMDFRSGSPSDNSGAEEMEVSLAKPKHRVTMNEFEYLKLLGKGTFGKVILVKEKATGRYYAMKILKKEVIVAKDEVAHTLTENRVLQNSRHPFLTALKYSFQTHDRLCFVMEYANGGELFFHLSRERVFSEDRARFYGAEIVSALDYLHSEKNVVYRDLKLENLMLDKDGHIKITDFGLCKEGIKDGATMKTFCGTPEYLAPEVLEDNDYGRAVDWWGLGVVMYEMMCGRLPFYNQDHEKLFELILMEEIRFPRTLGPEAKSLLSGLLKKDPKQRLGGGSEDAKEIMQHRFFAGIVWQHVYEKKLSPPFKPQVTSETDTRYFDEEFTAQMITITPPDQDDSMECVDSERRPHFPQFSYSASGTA
- Sequence (P31751 whole entry, looked up): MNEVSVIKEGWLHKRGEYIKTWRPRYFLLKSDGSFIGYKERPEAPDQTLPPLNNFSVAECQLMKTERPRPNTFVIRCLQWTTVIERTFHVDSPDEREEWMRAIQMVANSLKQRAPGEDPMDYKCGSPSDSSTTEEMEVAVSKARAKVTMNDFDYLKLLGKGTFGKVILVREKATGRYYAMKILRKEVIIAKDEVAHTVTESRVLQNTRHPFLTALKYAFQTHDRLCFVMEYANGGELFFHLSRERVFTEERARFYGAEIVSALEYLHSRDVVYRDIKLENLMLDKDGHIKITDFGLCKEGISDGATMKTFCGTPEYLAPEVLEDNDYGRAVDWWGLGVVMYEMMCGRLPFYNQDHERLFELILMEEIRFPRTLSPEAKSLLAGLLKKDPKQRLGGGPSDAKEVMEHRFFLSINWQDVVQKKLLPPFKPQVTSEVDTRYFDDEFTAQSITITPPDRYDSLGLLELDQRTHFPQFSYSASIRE
- Sequence (Q9Y243 whole entry, looked up): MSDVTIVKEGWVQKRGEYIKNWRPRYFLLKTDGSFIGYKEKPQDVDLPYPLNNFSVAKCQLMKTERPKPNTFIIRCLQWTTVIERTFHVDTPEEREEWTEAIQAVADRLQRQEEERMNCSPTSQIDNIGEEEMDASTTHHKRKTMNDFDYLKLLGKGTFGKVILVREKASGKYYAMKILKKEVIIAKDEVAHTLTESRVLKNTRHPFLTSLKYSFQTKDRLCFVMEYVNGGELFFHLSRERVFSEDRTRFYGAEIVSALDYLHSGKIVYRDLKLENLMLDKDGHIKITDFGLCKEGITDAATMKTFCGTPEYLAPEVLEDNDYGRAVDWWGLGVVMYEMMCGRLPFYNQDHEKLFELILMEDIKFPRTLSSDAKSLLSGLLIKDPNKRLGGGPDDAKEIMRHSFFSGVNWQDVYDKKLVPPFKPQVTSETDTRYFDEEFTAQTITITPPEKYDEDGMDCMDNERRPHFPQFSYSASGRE
- testDetails: Inhibition of Akt signaling pathway in human HT1080 cells assessed as fold change in phosphorylated 70S6K level at 10 uM incubated for 24 hrs by immunoblot assay (reference value: 1)
- Assay type: cell-based
- details: HT-1080
measurementKind: fold change (FC)

CC(C)=CCC[C@]1(C)/C=C/[C@@H](OC(=O)C=C(C)C)[C@]2(C)O[C@@H]2CC/C(C=O)=C\C1    1.11

A. C=C(I)CC[C@H]1O[C@@]1(C)[C@@H](/C=C/[C@](C)(CC=O)CCC=C(C)C)OC(=O)C=C(C)C
B. C=C1CC[C@H]2O[C@@]2(C)[C@H](OC(=O)C=C(C)C)/C=C/[C@@](C)(CCC=C(C)C)CC1=O
Inquiry: Select one. Lower fold change (FC): A or B To answer, give the label that identifies your chosen option.
Reply text: B

Reference source: ChEMBL document CHEMBL4610012
